Reference source: patent US20040254221A1

system: ICR mice (male); details: mouse, in vivo, 4 days
Quick reference for Dead mice/test mice among some compounds

// below: answered compounds
> print(dat)
                                        mol  target.under.test  observed
1  C[C@H](NC(=O)[C@H](CCCSC(=N)N)NC(=O)c1ccc(CNCc2ccccn2)cc1)c1cccc2ccccc12    ICR mice (male)       0/5
2  C[C@H](NC(=O)[C@H](CCCN1CCCCCC1)NC(=O)c1ccc(CNCc2ncc[nH]2)cc1)c1cccc2ccccc12    ICR mice (male)       0/5

Next, consider the following compound.
The reported value for CC(C)CN(CCO)CCC[C@H](NC(=O)c1ccc(CNCc2ncc[nH]2)cc1)C(=O)N[C@@H](C)c1cccc2ccccc12 in terms of Dead mice/test mice is 0/5

---

tested on: HIV-1IIIB infected MT-4 cells; experiment: Antiviral activity in HIV-1IIIB infected MT-4 cells (MTT method); format: cell-based; details: Human immunodeficiency virus 1, MT4, 120 h, MOI 0.01, MT-4 cells, 5 days, read-out: EC50 (concentration required for inhibition of cell disorder due to HIV infection by 50%)
Entries whose EC50 is below 60 nM take met; entries at or above 60 nM take not met.

> print(dat)
                                        mol  discrete.label
1  Cc1ccccc1CNCCC[C@H](NC(=O)c1ccc(CNCc2ncc[nH]2)cc1)C(=O)N[C@@H](C)c1cccc2ccccc12             met
2  Cc1cccnc1CNCCC[C@H](NC(=O)c1ccc(CNCc2ncc[nH]2)cc1)C(=O)N[C@@H](C)c1cccc2ccccc12             met
3  CCCN(CCC[C@H](NC(=O)c1ccc(CNCc2ncc[nH]2)cc1)C(=O)N[C@@H](C)c1cccc2ccccc12)CC(C)C             met
4  COc1ccccc1CNCCC[C@H](NC(=O)c1ccc(CNCc2ncc[nH]2)cc1)C(=O)N[C@@H](C)c1cccc2ccccc12         not met
5  C/N=C(\N)SCCC[C@H](NC(=O)c1ccc(CNCc2ccccn2)cc1)C(=O)N[C@@H](C)c1cccc2ccccc12             met

Q: Here's an entry: CCc1ccccc1CNCCC[C@H](NC(=O)c1ccc(CNCc2ncc[nH]2)cc1)C(=O)N[C@@H](C)c1cccc2ccccc12 . Is its EC50 below 60 nM?
Result: met

Q: A record lists CCCN(CCC)CCC[C@H](NC(=O)c1ccc(CNCc2ncc[nH]2)cc1)C(=O)N[C@@H](C)c1cccc2ccccc12 . Is its EC50 below 60 nM?
Result: met

Q: Say whether its EC50 is strictly beneath 60 nM. Entry: C[C@H](NC(=O)[C@H](CCCN1CCCCCC1)NC(=O)c1ccc(CNCc2ncc[nH]2)cc1)c1cccc2ccccc12
Result: met

---

Catalogue of inhibition at 0.1 µM readings, one per entry.
biological target: receptors CXCR4 (Homo sapiens, UniProt P61073); construct: endogenous in cells; host or cells: MT4 cells; experiment: Inhibition of 125I-SDF-1 binding to CXCR4 on MT4 cells; conditions: 125I-SDF-1 ligand, 2 hours under ice-cooling, read-out: Inhibition rate (binding-inhibition %)
Sequence (P61073 whole entry): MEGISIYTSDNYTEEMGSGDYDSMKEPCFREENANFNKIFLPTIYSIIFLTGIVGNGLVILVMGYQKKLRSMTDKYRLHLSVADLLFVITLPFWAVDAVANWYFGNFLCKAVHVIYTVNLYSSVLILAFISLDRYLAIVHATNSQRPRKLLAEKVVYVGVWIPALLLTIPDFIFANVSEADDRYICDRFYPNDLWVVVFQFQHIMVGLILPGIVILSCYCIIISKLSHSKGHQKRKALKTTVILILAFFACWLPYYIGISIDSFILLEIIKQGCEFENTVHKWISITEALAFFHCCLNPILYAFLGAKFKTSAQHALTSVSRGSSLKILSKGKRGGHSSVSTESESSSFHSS
Just the number please, in %, no unit attached.

Entry COc1ccccc1CNCCC[C@H](NC(=O)c1ccc(CNCc2ncc[nH]2)cc1)C(=O)N[C@@H](C)c1cccc2ccccc12 — recorded inhibition at 0.1 µM = 97.6

Form: molecule = C[C@H](NC(=O)[C@H](CCCNC1CCc2ccccc21)NC(=O)c1ccc(CNCc2ncc[nH]2)cc1)c1cccc2ccccc12 (stereo partly shown) ; inhibition at 0.1 µM = 100

GET /value?item= Cc1ccccc1CNCCC[C@H](NC(=O)c1ccc(CNCc2ncc[nH]2)cc1)C(=O)N[C@@H](C)c1cccc2ccccc12 &field=inhibition at 0.1 µM returns 100

// field: inhibition at 0.1 µM; key: C[C@H](NC(=O)[C@H](CCCNC1CCCCC1)NC(=O)c1ccc(CNCc2ncc[nH]2)cc1)c1cccc2ccccc12 ; value = 97

Summary for this molecule, CC(C)CN(CCC[C@H](NC(=O)c1ccc(CNCc2ncc[nH]2)cc1)C(=O)N[C@@H](C)c1cccc2ccccc12)CC(C)C : inhibition at 0.1 µM is 100

Record summary for C[C@H](NC(=O)[C@H](CCCNC1CCCc2ccccc21)NC(=O)c1ccc(CNCc2ncc[nH]2)cc1)c1cccc2ccccc12 (stereo partly shown) : reported inhibition at 0.1 µM = 100

Reported inhibition at 0.1 µM of C[C@H](NC(=O)[C@H](CCCN1CCCCCC1)NC(=O)c1ccc(CNCc2ncc[nH]2)cc1)c1cccc2ccccc12 : 89.3

Record CC(C)CN(CCO)CCC[C@H](NC(=O)c1ccc(CNCc2ncc[nH]2)cc1)C(=O)N[C@@H](C)c1cccc2ccccc12 , field inhibition at 0.1 µM: 90.6

Measured inhibition at 0.1 µM of C[C@H](NC(=O)[C@H](CCCSC(=N)N)NC(=O)c1ccc(CNCc2ccccn2)cc1)c1cccc2ccccc12 : 93.5

Query CCCN(CCC)CCC[C@H](NC(=O)c1ccc(CNCc2ncc[nH]2)cc1)C(=O)N[C@@H](C)c1cccc2ccccc12 yields inhibition at 0.1 µM of 98
